target: equine FcRn (large alpha subunit p51) / equine beta-2-microglobulin complex, biotinylated (equine) (UniProt P30441); test: SPR (Biacore), pH 6
pKd: −log10 of the molar value.
In this section we review reported pKd values for a set of binders.

| binder | pKd |
| --- | --- |
| equine IgG4 N434F (antibody, part only; not given: variable domains, not shown: another chain or arm of the molecule) constant: ASTTAPKVFPLASHSAATSGSTVALGCLVSSYFPEPVTVSWNSGALTSGVHTFPSVLQSSGLYSLSSMVTVPASSLKSQTYICNVAHPASSTKVDKKIVIKECNGGCPAECLQVGPSVFIFPPKPKDVLMISRTPTVTCVVVDVGHDFPDVQFNWYVDGVETHTATTEPKQEQFNSTYRVVSVLPIQHKDWLSGKEFKCKVNNKALPAPVERTISKPTGQPREPQVYVLAPHRDELSKNKVSVTCLVKDFYPTDIDIEWKSNGQPEPETKYSTTPAQLDSDGSYFLYSKLTVETNRWQQGTTFTCAVMHEALHFHYTEKSVSKSPGK | 8.36 |
| equine IgG1 D312H (antibody, part only; not given: variable domains, not shown: another chain or arm of the molecule) constant: ASTTAPKVFALAPGCGTTSDSTVALGCLVSGYFPEPVKVSWNSGSLTSGVHTFPSVLQSSGFYSLSSMVTVPASTWTSETYICNVVHAASNFKVDKRIEPIPDNHQKVCDMSKCPKCPAPELLGGPSVFIFPPNPKDTLMITRTPEVTCVVVDVSQENPDVKFNWYMDGVEVRTATTRPKEEQFNSTYRVVSVLRIQHQHWLSGKEFKCKVNNQALPQPIERTITKTKGRSQEPQVYVLAPHPDELSKSKVSVTCLVKDFYPPEINIEWQSNGQPELETKYSTTQAQQDSDGSYFLYSKLSVDRNRWQQGTTFTCGVMHEALHNHYTQKNVSKNPGK | 7.77 |
| equine IgG4 D312R (antibody, part only; not given: variable domains, not shown: another chain or arm of the molecule) constant: ASTTAPKVFPLASHSAATSGSTVALGCLVSSYFPEPVTVSWNSGALTSGVHTFPSVLQSSGLYSLSSMVTVPASSLKSQTYICNVAHPASSTKVDKKIVIKECNGGCPAECLQVGPSVFIFPPKPKDVLMISRTPTVTCVVVDVGHDFPDVQFNWYVDGVETHTATTEPKQEQFNSTYRVVSVLPIQHKRWLSGKEFKCKVNNKALPAPVERTISKPTGQPREPQVYVLAPHRDELSKNKVSVTCLVKDFYPTDIDIEWKSNGQPEPETKYSTTPAQLDSDGSYFLYSKLTVETNRWQQGTTFTCAVMHEALHNHYTEKSVSKSPGK | 7.73 |
| equine IgG1 Q311E (antibody, part only; not given: variable domains, not shown: another chain or arm of the molecule) constant: ASTTAPKVFALAPGCGTTSDSTVALGCLVSGYFPEPVKVSWNSGSLTSGVHTFPSVLQSSGFYSLSSMVTVPASTWTSETYICNVVHAASNFKVDKRIEPIPDNHQKVCDMSKCPKCPAPELLGGPSVFIFPPNPKDTLMITRTPEVTCVVVDVSQENPDVKFNWYMDGVEVRTATTRPKEEQFNSTYRVVSVLRIQHEDWLSGKEFKCKVNNQALPQPIERTITKTKGRSQEPQVYVLAPHPDELSKSKVSVTCLVKDFYPPEINIEWQSNGQPELETKYSTTQAQQDSDGSYFLYSKLSVDRNRWQQGTTFTCGVMHEALHNHYTQKNVSKNPGK | 7.17 |
| equine IgG4 N434R (antibody, part only; not given: variable domains, not shown: another chain or arm of the molecule) constant: ASTTAPKVFPLASHSAATSGSTVALGCLVSSYFPEPVTVSWNSGALTSGVHTFPSVLQSSGLYSLSSMVTVPASSLKSQTYICNVAHPASSTKVDKKIVIKECNGGCPAECLQVGPSVFIFPPKPKDVLMISRTPTVTCVVVDVGHDFPDVQFNWYVDGVETHTATTEPKQEQFNSTYRVVSVLPIQHKDWLSGKEFKCKVNNKALPAPVERTISKPTGQPREPQVYVLAPHRDELSKNKVSVTCLVKDFYPTDIDIEWKSNGQPEPETKYSTTPAQLDSDGSYFLYSKLTVETNRWQQGTTFTCAVMHEALHRHYTEKSVSKSPGK | 7.64 |
| equine IgG1 M252F (antibody, part only; not given: variable domains, not shown: another chain or arm of the molecule) constant: ASTTAPKVFALAPGCGTTSDSTVALGCLVSGYFPEPVKVSWNSGSLTSGVHTFPSVLQSSGFYSLSSMVTVPASTWTSETYICNVVHAASNFKVDKRIEPIPDNHQKVCDMSKCPKCPAPELLGGPSVFIFPPNPKDTLFITRTPEVTCVVVDVSQENPDVKFNWYMDGVEVRTATTRPKEEQFNSTYRVVSVLRIQHQDWLSGKEFKCKVNNQALPQPIERTITKTKGRSQEPQVYVLAPHPDELSKSKVSVTCLVKDFYPPEINIEWQSNGQPELETKYSTTQAQQDSDGSYFLYSKLSVDRNRWQQGTTFTCGVMHEALHNHYTQKNVSKNPGK | 7.32 |
| equine IgG1 Q311R (antibody, part only; not given: variable domains, not shown: another chain or arm of the molecule) constant: ASTTAPKVFALAPGCGTTSDSTVALGCLVSGYFPEPVKVSWNSGSLTSGVHTFPSVLQSSGFYSLSSMVTVPASTWTSETYICNVVHAASNFKVDKRIEPIPDNHQKVCDMSKCPKCPAPELLGGPSVFIFPPNPKDTLMITRTPEVTCVVVDVSQENPDVKFNWYMDGVEVRTATTRPKEEQFNSTYRVVSVLRIQHRDWLSGKEFKCKVNNQALPQPIERTITKTKGRSQEPQVYVLAPHPDELSKSKVSVTCLVKDFYPPEINIEWQSNGQPELETKYSTTQAQQDSDGSYFLYSKLSVDRNRWQQGTTFTCGVMHEALHNHYTQKNVSKNPGK | 8.00 |
| equine IgG1 D312Y (antibody, part only; not given: variable domains, not shown: another chain or arm of the molecule) constant: ASTTAPKVFALAPGCGTTSDSTVALGCLVSGYFPEPVKVSWNSGSLTSGVHTFPSVLQSSGFYSLSSMVTVPASTWTSETYICNVVHAASNFKVDKRIEPIPDNHQKVCDMSKCPKCPAPELLGGPSVFIFPPNPKDTLMITRTPEVTCVVVDVSQENPDVKFNWYMDGVEVRTATTRPKEEQFNSTYRVVSVLRIQHQYWLSGKEFKCKVNNQALPQPIERTITKTKGRSQEPQVYVLAPHPDELSKSKVSVTCLVKDFYPPEINIEWQSNGQPELETKYSTTQAQQDSDGSYFLYSKLSVDRNRWQQGTTFTCGVMHEALHNHYTQKNVSKNPGK | 7.77 |
